Test system: L1210 leukemia ip in BDF1 mice, survival T/C
experiment-summary: NCI In Vivo Anticancer Drug Screen. Data for tumor model L1210 Leukemia (intraperitoneal) in B6D2F1 (BDF1) mice
experimental-context: endpoint: mean survival time; dose: 50.0 mg/kg/injection; schedule: Q01DX001 (ip); vehicle: other
Toxic doses and inconclusive results are not listed. Rule as the data show it: active = T/C of 150% or more; inactive = T/C below 125%.
Outcome codes: active, inactive

{"smiles-repr": "CNS(=O)(=O)c1ccc(NC(=O)CI)cc1", "qualitative-label": "inactive"}
{"smiles-repr": "COC(=O)c1c(C)cc(OC(=O)c2c(C)cc(OC)c(C)c2OC)c(C)c1O", "qualitative-label": "inactive"}
{"smiles-repr": "NNc1nncc(-c2ccccc2)n1", "qualitative-label": "inactive"}
{"smiles-repr": "Cc1ccc(NC(=O)N(CCCl)N=O)c(C)c1", "qualitative-label": "active"}

====

System: L1210 leukemia ip in BDF1 mice, survival T/C
experiment-summary: NCI In Vivo Anticancer Drug Screen. Data for tumor model L1210 Leukemia (intraperitoneal) in B6D2F1 (BDF1) mice
experimental-context: endpoint: mean survival time; dose: 200.0 mg/kg/injection; schedule: Q01DX001 (ip); vehicle: Klucel (hydroxypropylcellulose) (HPC); higher = longer survival
Inconclusive results and toxic doses are left out.
property-name: T/C

{"smiles-repr": "O=C(COc1ccc(Cl)c(Cl)c1)N(Cc1ccccc1)Cc1cccnc1", "property-name": "T/C", "result": "96 % of control"}
{"smiles-repr": "CC(=O)Oc1ccccc1C1SCSCS1", "property-name": "T/C", "result": "100 % of control"}
{"smiles-repr": "CN(C)c1ccc(C(=O)CCCN2CCC3(CC2)C(=O)NCN3c2ccccc2)cc1", "property-name": "T/C", "result": "94 % of control"}

====

Tested on: L1210 leukemia ip in BDF1 mice, survival T/C
experiment-summary: NCI In Vivo Anticancer Drug Screen. Data for tumor model L1210 Leukemia (intraperitoneal) in B6D2F1 (BDF1) mice
experimental-context: endpoint: mean survival time; dose: 400.0 mg/kg/injection; schedule: Q01DX009 (ip); vehicle: Klucel (hydroxypropylcellulose) (HPC); higher = longer survival
Toxic doses and inconclusive results are not listed.
Reported T/C values for the following molecules.

{"molecule": "CCCCCCCCCCCCCCC(=O)c1ccccc1", "T/C": "95 % of control"}
{"molecule": "CSc1ccc(OC(=O)Nc2ccc(Cl)c(Cl)c2)cc1C", "T/C": "92 % of control"}
{"molecule": "COC(=O)C1=C(C(=O)OC)C2C=CC1C2", "T/C": "97 % of control"}
{"molecule": "Nc1ccccc1S(=O)(=O)Nc1ccccc1", "T/C": "87 % of control"}
{"molecule": "COc1ccc(NC(=O)COc2ccc(Cl)cc2)cc1", "T/C": "92 % of control"}
{"molecule": "O=C(CCO)Nc1cccc(Cl)c1", "T/C": "92 % of control"}
{"molecule": "C(=C\\c1ccccc1)/Cc1ccccc1", "T/C": "103 % of control"}
{"molecule": "COc1ccc(-c2cc(-c3ccccc3)c3ccccc3n2)c(OC)c1OC", "T/C": "90 % of control"}
{"molecule": "CCOC(=O)c1ccc(NC(=O)Oc2cc(=O)oc3ccccc23)cc1", "T/C": "96 % of control"}
{"molecule": "CCOC1=C(Br)C=CN(S(=O)(=O)c2ccc(C)cc2)c2ccc(OC)cc21", "T/C": "100 % of control"}
{"molecule": "CC(=O)CC(=O)Nc1ccc(C(=O)O)c(O)c1", "T/C": "93 % of control"}
{"molecule": "O=C(c1ccccc1)C1C(c2ccccc2)N1C(=O)c1ccccc1 (configuration not stated)", "T/C": "89 % of control"}

====

Tested on: L1210 leukemia ip in BDF1 mice, survival T/C
experiment-summary: NCI In Vivo Anticancer Drug Screen. Data for tumor model L1210 Leukemia (intraperitoneal) in B6D2F1 (BDF1) mice
experimental-context: endpoint: mean survival time; dose: 400.0 mg/kg/injection; schedule: Q04DX002 (ip); vehicle: saline with Tween-80; higher = longer survival
Toxic doses and inconclusive results are not listed.

{"compound": "COc1ccc(OC)c(-n2cccc2)c1", "T/C": "94 % of control"}
{"compound": "CN(C)C(=S)SCC(=O)NC(CO)C(=O)O (configuration not stated)", "T/C": "111 % of control"}
{"compound": "CCC(=O)c1ccc(OC)cc1", "T/C": "91 % of control"}
{"compound": "CCOC(=O)/C=C1\\CCCc2ccc(Cl)cc21", "T/C": "101 % of control"}
{"compound": "CC(=O)OCCC(COC(C)=O)n1ccc(=O)[nH]c1=O (configuration not stated)", "T/C": "102 % of control"}
{"compound": "CC(=O)OC(C)c1ccc(Cl)cc1 (configuration not stated)", "T/C": "93 % of control"}
{"compound": "O=S(=O)(O)c1ccc(-c2ccc([As](=O)(O)O)cc2)cc1", "T/C": "87 % of control"}

====

Test system: L1210 leukemia ip in BDF1 mice, survival T/C
experiment-summary: NCI In Vivo Anticancer Drug Screen. Data for tumor model L1210 Leukemia (intraperitoneal) in B6D2F1 (BDF1) mice
experimental-context: endpoint: mean survival time; dose: 400.0 mg/kg/injection; schedule: Q01DX009 (ip); vehicle: saline with Tween-80; higher = longer survival
Toxic doses and inconclusive results are not listed.
property-name: T/C

{"compound": "CC(=O)OC1C2CCC(C2)C1C (stereo not drawn)", "target": "L1210 leukemia ip in BDF1 mice, survival T/C", "result": "96 % of control"}
{"compound": "CC1=CC(C)(C)NC(=S)N1c1cc(Cl)ccc1Cl", "target": "L1210 leukemia ip in BDF1 mice, survival T/C", "result": "92 % of control"}
{"compound": "CCCCOC(=O)C1OC1c1ccccc1 (stereo not drawn)", "target": "L1210 leukemia ip in BDF1 mice, survival T/C", "result": "95 % of control"}
{"compound": "COC(=O)c1ccccc1NCCCC(=O)O", "target": "L1210 leukemia ip in BDF1 mice, survival T/C", "result": "102 % of control"}
{"compound": "CCOC(=O)CNC(=O)NCCc1ccccc1", "target": "L1210 leukemia ip in BDF1 mice, survival T/C", "result": "87 % of control"}
{"compound": "Cc1c(C)c(C(=O)O)c(C)c(C)c1C(=O)O", "target": "L1210 leukemia ip in BDF1 mice, survival T/C", "result": "102 % of control"}
{"compound": "Cc1ccc(NC(=O)c2ccc([N+](=O)[O-])cc2)c(C)c1", "target": "L1210 leukemia ip in BDF1 mice, survival T/C", "result": "96 % of control"}
{"compound": "Cc1cc(=O)cc(C)n1C", "target": "L1210 leukemia ip in BDF1 mice, survival T/C", "result": "92 % of control"}
{"compound": "O=C(N/N=C\\c1ccc([N+](=O)[O-])cc1)c1ccncc1", "target": "L1210 leukemia ip in BDF1 mice, survival T/C", "result": "98 % of control"}
{"compound": "O=c1ccc2ccccc2n1Cc1ccc2ccccc2n1", "target": "L1210 leukemia ip in BDF1 mice, survival T/C", "result": "101 % of control"}
{"compound": "O=S(=O)(Nc1ccc(O)c(Cl)c1)c1ccccc1", "target": "L1210 leukemia ip in BDF1 mice, survival T/C", "result": "95 % of control"}
{"compound": "CCOC(=O)CNC(=O)Nc1ccc(NC(C)=O)cc1", "target": "L1210 leukemia ip in BDF1 mice, survival T/C", "result": "88 % of control"}
{"compound": "O=S(O)c1ccc2cc(O)c(S(=O)O)cc2c1", "target": "L1210 leukemia ip in BDF1 mice, survival T/C", "result": "92 % of control"}

====

System: L1210 leukemia ip in BDF1 mice, survival T/C
experiment-summary: NCI In Vivo Anticancer Drug Screen. Data for tumor model L1210 Leukemia (intraperitoneal) in B6D2F1 (BDF1) mice
experimental-context: endpoint: mean survival time; dose: 100.0 mg/kg/injection; schedule: Q01DX009 (ip); vehicle: Klucel (hydroxypropylcellulose) (HPC); higher = longer survival
Inconclusive results and toxic doses are left out.
property-name: T/C

{"compound": "CC(=O)Nc1nnc(Sc2ccc([N+](=O)[O-])cc2[N+](=O)[O-])s1", "target": "L1210 leukemia ip in BDF1 mice, survival T/C", "property-name": "T/C", "result": "95 % of control"}
{"compound": "CSc1ccc(OC(=O)Nc2ccc(Cl)c(Cl)c2)cc1C", "target": "L1210 leukemia ip in BDF1 mice, survival T/C", "property-name": "T/C", "result": "106 % of control"}
{"compound": "CC1=CC(OC2CCCCO2)C2CC1C2(C)C (stereo unspecified)", "target": "L1210 leukemia ip in BDF1 mice, survival T/C", "property-name": "T/C", "result": "97 % of control"}
{"compound": "CC(C)CC(NC(=O)C1(N)C2CC3CC(C2)CC1C3)C(=O)O (stereo unspecified)", "target": "L1210 leukemia ip in BDF1 mice, survival T/C", "property-name": "T/C", "result": "108 % of control"}
{"compound": "O=C(O)COc1nc2ccccc2s1", "target": "L1210 leukemia ip in BDF1 mice, survival T/C", "property-name": "T/C", "result": "95 % of control"}
{"compound": "O=C(CCO)Nc1cccc(Cl)c1", "target": "L1210 leukemia ip in BDF1 mice, survival T/C", "property-name": "T/C", "result": "93 % of control"}
{"compound": "O=C(c1ccccc1)C1C(c2ccccc2)N1C(=O)c1ccccc1 (stereo unspecified)", "target": "L1210 leukemia ip in BDF1 mice, survival T/C", "property-name": "T/C", "result": "94 % of control"}
{"compound": "CO/C(=C\\c1ccc(OC)cc1)C(=O)O", "target": "L1210 leukemia ip in BDF1 mice, survival T/C", "property-name": "T/C", "result": "93 % of control"}
{"compound": "O=C(Nc1cccc(Cl)c1Cl)N(Cc1ccccc1)Cc1ccccc1", "target": "L1210 leukemia ip in BDF1 mice, survival T/C", "property-name": "T/C", "result": "108 % of control"}
{"compound": "O=[N+]([O-])c1cccc(C=Nc2cccc(C(F)(F)F)c2)c1", "target": "L1210 leukemia ip in BDF1 mice, survival T/C", "property-name": "T/C", "result": "109 % of control"}
{"compound": "CCN(C(=O)c1ccc(C(=O)N(CC)c2cccc(C)c2)cc1)c1cccc(C)c1", "target": "L1210 leukemia ip in BDF1 mice, survival T/C", "property-name": "T/C", "result": "94 % of control"}

Measured values drawn from PubChem BioAssay AID248 for this set.
